Endpoint summary: pIC50, system: UniProtKB Q8N6T7, multiple sources combined.
Sequence (Q8N6T7 whole entry): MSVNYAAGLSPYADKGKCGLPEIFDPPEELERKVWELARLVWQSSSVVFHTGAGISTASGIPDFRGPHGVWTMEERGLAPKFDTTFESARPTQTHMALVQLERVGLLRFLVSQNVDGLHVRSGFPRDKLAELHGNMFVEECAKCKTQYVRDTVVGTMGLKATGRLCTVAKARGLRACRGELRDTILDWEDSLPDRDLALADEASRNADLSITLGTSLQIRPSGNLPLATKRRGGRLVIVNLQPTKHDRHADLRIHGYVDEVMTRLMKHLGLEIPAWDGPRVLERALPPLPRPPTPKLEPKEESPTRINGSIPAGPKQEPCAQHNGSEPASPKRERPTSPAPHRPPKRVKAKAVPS
pIC50: −log10 of the molar value.
Threshold rule: pIC50 greater than or equal to 4 is 1; below that, 0.

CN1CCN(c2ccc([N+](=O)[O-])c(NCc3ccccc3)c2)CC1 : 1
CN1CCN(c2ccc([N+](=O)[O-])c(C(=O)NCc3ccccc3)c2)CC1 : 1
CC(=O)NCCCC[C@H](NC(=O)[C@H](CCCCNC(=S)NCCC(=O)O)NC(=O)[C@H](CCCCNC(C)=O)NC(C)=O)C(N)=O : 0
CN1CCN(c2ccc([N+](=O)[O-])c(C(=O)Nc3ccc(Oc4ccccc4)cc3)c2)CC1 : 1
CN1CCN(c2ccc([N+](=O)[O-])c(NC(=O)c3cc(Cl)nc4ccccc34)c2)CC1 : 1

-- ask Is pIC50 for Cc1cc(C)nc(SCC(=O)Nc2ncc(Cc3cccc4ccccc34)s2)n1 at or above 4?
-- reply 0

-- ask Is it the case that CC(=O)NC[C@H](NC(=O)[C@H](CCCCNC(C)=S)NC(=O)[C@H](Cc1ccc2ccccc2c1)NC(C)=O)C(N)=O has pIC50 reaching or exceeding 4?
-- reply 0
